target-under-test: UniProtKB P28223
Sequence (P28223 whole entry): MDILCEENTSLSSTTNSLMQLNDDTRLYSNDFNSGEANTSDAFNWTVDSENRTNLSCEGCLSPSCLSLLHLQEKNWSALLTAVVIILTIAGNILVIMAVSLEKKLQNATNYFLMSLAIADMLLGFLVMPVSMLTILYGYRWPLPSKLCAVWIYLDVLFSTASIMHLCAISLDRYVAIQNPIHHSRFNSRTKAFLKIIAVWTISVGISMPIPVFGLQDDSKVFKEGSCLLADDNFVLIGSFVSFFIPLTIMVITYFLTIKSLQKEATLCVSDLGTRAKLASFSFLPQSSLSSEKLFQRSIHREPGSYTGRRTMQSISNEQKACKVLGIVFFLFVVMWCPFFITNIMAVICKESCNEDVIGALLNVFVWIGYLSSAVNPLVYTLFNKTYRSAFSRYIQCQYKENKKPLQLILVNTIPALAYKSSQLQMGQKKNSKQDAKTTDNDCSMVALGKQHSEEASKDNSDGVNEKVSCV
assay-details: Displacement of [3H]Ketanserin from human recombinant 5HT2A receptor incubated for […] by microbeta scintillation counting method
property: pKi
// pKi here means minus log10 of the molar concentration (mol/L)

Worked set:
Fc1ccc(C(c2ccc(F)cc2)N2CCN(CCCCc3nc4ccccc4s3)CC2)cc1 | 6.28
OC1(c2ccc(Cl)cc2)CCN(CCCc2nc3ccccc3s2)CC1 | 6.77
OC1(c2ccc(Cl)cc2)CCN(CCCCc2nc3ccccc3o2)CC1 | 5.22

Now turn to the next molecule.
Ask: Observed pKi on UniProtKB P28223 for O=C(CCCCN1CCN(C(c2ccc(F)cc2)c2ccc(F)cc2)CC1)c1nc2ccccc2s1 , please.
Reply: 5.97

----------
target-under-test: 5-hydroxytryptamine receptor 2B (Homo sapiens, UniProt P41595)
Sequence (P41595 whole entry): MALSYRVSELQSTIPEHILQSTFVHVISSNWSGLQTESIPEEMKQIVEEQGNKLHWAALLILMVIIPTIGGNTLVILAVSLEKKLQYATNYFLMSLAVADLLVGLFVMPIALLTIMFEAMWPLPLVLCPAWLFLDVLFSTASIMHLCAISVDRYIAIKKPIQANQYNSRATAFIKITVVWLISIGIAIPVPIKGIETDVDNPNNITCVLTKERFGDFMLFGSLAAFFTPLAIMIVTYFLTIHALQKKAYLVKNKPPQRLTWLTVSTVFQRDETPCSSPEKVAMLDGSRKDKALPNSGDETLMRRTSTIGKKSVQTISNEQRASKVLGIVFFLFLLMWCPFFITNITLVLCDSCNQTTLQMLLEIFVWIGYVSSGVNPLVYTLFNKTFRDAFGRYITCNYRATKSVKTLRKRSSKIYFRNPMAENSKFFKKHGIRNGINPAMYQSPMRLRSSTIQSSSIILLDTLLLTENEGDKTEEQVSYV
assay-details: Displacement of [3H]LSD from human recombinant 5HT2B receptor incubated for […] by microbeta scintillation counting method
Some molecules, each annotated with its measured pKi.
// pKi here means minus log10 of the molar concentration (mol/L)

Worked set:
O=C1NCN(c2ccccc2)C12CCN(CCCCc1nc3ccccc3o1)CC2 | 6.04
O=C1NCN(c2ccccc2)C12CCN(CCCCc1nc3cc(Cl)ccc3s1)CC2 | 7.44
O=C1NCN(c2ccccc2)C12CCN(CCCCc1nc3ccccc3s1)CC2 | 6.91

Ask: Recorded pKi for O=C1NCN(c2ccccc2)C12CCN(CCCCc1c[nH]c3ccccc13)CC2 , please?
Reply: 6.69

Ask: Recorded pKi for OC1(c2ccc(Cl)cc2)CC2CCC(C1)N2CCCCc1nc2ccccc2s1 (stereo unspecified) , please?
Reply: 6.47

Ask: Recorded pKi for Cl.O=C(CCCCN1C2CCC1CC(O)(c1ccc(Cl)cc1)C2)c1nc2ccccc2s1 (stereo unspecified) , please?
Reply: 6.12

----------
target-under-test: UniProt:P21917
Sequence (P21917 whole entry): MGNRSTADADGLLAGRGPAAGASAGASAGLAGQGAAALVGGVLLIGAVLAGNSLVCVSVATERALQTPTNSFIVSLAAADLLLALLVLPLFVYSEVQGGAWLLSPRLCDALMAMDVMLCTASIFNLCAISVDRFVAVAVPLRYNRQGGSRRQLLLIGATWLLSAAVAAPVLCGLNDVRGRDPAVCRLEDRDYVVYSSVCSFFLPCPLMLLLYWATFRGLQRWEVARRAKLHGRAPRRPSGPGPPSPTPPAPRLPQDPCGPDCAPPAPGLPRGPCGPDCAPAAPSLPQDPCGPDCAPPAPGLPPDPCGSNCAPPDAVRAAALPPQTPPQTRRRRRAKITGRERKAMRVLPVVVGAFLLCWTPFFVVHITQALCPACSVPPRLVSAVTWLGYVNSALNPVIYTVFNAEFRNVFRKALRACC
assay-details: Displacement of [3H]N-methylspiperone from human recombinant dopamine D4 receptor incubated for […] by microbeta scintillation counting method
property: Ki
Answer with the figure and its unit, nothing else.

Fc1ccc(C(c2ccc(F)cc2)N2CCN(CCCCc3nc4ccccc4s3)CC2)cc1 | 68 nM
O=C(CCCCN1CCN(C(c2ccc(F)cc2)c2ccc(F)cc2)CC1)c1nc2ccccc2s1 | 1220 nM
OC1(c2ccc(Cl)cc2)CCN(CCCCc2nc3ccccc3o2)CC1 | 229 nM

Ask: Recorded Ki for O=C(CCCCN1CCC2(CC1)C(=O)NCN2c1ccccc1)c1nc2ccccc2s1 , please?
Reply: 162 nM

Ask: Recorded Ki for O=C1NCN(c2ccccc2)C12CCN(CCCCc1c[nH]c3ccccc13)CC2 , please?
Reply: 1.6 nM

----------
target-under-test: UniProtKB P35462
Sequence (P35462 whole entry): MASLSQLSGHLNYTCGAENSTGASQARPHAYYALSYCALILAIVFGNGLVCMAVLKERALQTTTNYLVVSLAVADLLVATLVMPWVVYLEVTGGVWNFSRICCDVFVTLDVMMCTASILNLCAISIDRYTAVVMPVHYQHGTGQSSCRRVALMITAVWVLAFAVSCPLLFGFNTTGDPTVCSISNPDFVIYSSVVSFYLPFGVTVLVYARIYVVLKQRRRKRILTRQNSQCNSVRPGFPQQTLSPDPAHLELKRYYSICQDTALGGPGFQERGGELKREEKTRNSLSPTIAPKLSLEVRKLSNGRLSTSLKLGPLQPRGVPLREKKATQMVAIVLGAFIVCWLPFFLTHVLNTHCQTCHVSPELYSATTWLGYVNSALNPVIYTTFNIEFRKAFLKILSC
assay-details: Displacement of [3H]N-methylspiperone from human recombinant dopamine D3 receptor incubated for […] by microbeta scintillation counting method
Some molecules, each annotated with its measured log10 Ki.
Plainly stated, the numbers are log10 of Ki given in nM.

Worked set:
Fc1ccc(C(c2ccc(F)cc2)N2CCN(CCCCc3nc4ccccc4s3)CC2)cc1 | 1.52
O=C1NCN(c2ccccc2)C12CCN(CCCCc1nc3cc(Cl)ccc3s1)CC2 | 2.70
O=C1NCN(c2ccccc2)C12CCN(CCCCc1c[nH]c3ccccc13)CC2 | 1.49
OC1(c2ccc(Cl)cc2)CCN(CCCCc2nc3ccccc3o2)CC1 | 2.97
O=C1NCN(c2ccccc2)C12CCN(CCCCc1nc3ccccc3o1)CC2 | 1.32
O=C(CCCCN1CCN(C(c2ccc(F)cc2)c2ccc(F)cc2)CC1)c1nc2ccccc2s1 | 2.37
O=C1NCN(c2ccccc2)C12CCN(CCCCc1nc3ccccc3s1)CC2 | 1.51
OC1(c2ccc(Cl)cc2)CCN(CCCc2nc3ccccc3s2)CC1 | 1.45
O=C(CCCCN1CCC2(CC1)C(=O)NCN2c1ccccc1)c1nc2ccccc2s1 | 1.26
OC1(c2ccc(Cl)cc2)CCN(CCCCc2nc3ccccc3s2)CC1 | 2.46

Now turn to the next molecule.
Ask: Observed log10 Ki on UniProtKB P35462 for O=C(CCCCN1CCC(n2c(=O)[nH]c3cc(Cl)ccc32)CC1)c1nc2ccccc2s1 , please.
Reply: 1.81

src = ChEMBL document CHEMBL3817845
